Would you mind telling me the reported inhibition of each entry?
- Assay System: Nucleosome-remodeling factor subunit BPTF (Homo sapiens)
- Assay Overview: Inhibition of biotinylated-H3K4me2 binding to N-terminal His9 tagged human BPTF isoform 2 PHD (2722 to 2781 residues) expressed in Escherichia coli BL21 Star (DE3) at 2 mM measured after 1 hr by Alphascreen assay relative to control
Your answer should be a plain number; it is taken to be in %.

For the compound "Cc1cccc(CSC2=NCCN2)c1" , what inhibition is on record?
83

For the compound "CCS(=O)(=O)N1CCN(c2ccc(Nc3ccc(C)cc3)nn2)CC1" , what inhibition is on record?
78

For the compound "COC1CN(c2nc3ccccc3s2)C1" , what inhibition is on record?
70

For the compound "Cn1nc2c(c1CNC(=O)c1ccc3c(c1)OCO3)CCC2" , what inhibition is on record?
71

For the compound "Nc1c2c(nc3c1CCC3)CCC2" , what inhibition is on record?
60

For the compound "Nc1ccnc2c1CCCC2" , what inhibition is on record?
70

====

- Assay System: Lysine-specific demethylase 5A (Homo sapiens) (UniProt P29375)
- Sequence (P29375 whole entry, the tested form may be a part): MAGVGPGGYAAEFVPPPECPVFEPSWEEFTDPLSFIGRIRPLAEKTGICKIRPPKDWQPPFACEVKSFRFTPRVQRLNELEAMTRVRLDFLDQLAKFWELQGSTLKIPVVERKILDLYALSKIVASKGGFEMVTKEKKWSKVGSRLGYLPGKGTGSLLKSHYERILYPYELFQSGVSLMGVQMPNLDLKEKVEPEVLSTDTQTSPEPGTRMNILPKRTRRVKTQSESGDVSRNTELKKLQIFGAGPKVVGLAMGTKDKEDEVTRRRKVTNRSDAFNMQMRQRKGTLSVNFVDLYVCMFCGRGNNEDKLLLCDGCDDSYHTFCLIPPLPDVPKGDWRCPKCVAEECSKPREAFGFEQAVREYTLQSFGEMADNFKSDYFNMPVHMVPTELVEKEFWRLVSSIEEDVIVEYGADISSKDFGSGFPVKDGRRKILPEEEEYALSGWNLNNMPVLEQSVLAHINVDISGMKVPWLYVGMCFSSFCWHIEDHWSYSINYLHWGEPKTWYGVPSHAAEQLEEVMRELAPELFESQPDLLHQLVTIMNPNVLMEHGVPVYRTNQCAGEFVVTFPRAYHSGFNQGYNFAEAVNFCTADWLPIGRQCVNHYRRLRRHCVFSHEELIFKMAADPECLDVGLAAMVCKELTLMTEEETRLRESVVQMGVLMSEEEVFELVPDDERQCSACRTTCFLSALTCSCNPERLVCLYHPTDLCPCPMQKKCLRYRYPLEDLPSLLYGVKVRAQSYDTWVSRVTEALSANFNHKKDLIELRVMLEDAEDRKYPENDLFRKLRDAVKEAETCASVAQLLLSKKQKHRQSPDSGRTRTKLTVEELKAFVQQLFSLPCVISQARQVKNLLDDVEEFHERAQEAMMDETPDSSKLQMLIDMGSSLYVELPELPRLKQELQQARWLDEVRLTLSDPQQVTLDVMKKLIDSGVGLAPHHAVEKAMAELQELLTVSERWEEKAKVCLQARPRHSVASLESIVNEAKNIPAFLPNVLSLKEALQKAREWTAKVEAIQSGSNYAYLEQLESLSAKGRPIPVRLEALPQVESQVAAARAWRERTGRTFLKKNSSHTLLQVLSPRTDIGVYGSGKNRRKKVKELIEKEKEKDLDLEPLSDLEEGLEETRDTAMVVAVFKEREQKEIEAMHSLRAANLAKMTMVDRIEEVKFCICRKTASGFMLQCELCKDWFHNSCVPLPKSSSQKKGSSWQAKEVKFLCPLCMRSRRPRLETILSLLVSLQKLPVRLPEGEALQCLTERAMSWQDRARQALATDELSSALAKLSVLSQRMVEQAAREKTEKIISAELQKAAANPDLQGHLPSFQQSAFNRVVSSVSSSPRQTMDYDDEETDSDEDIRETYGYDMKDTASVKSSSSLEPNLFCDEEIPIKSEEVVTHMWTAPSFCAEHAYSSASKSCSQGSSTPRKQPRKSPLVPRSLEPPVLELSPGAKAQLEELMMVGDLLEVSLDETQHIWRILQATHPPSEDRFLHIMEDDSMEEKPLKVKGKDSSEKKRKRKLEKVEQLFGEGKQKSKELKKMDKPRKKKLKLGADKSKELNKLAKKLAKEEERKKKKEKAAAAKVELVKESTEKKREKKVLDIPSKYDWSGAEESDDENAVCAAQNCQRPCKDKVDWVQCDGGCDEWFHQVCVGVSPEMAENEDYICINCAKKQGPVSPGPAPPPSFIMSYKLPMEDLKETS
- Assay Overview: Binding affinity to N-terminal His-tagged human KDM5A PHD3 (1486 to 1690 residues) expressed in Escherichia coli BL21 Star (DE3) assessed as reduction in proton resonance intensity at 100 uM by 1H CPMG NMR assay relative to control
- Set-up: scale not given: the % may be the effect or the level left
Would you mind telling me the reported Activity of each entry?

For the compound NCC1CCN(c2cccc(F)c2)C1 (stereo not given) , what Activity is on record?
< 20%

For the compound Cc1ccc(NC(=O)NCC(C)N2CCCC2)cc1 (stereo not given) , what Activity is on record?
< 20%

For the compound "COC1CN(c2nc3ccccc3s2)C1" , what Activity is on record?
< 20%

For the compound Nc1c2c(nc3c1CCC3)CCCC2 [IPIDACRINE] , what Activity is on record?
< 20%

For the compound "Cc1ccc(Nc2ccc(N3CCNCC3)nn2)cc1" , what Activity is on record?
< 20%

For the compound "O=C(CC12CC3CC(CC(C3)C1)C2)N1CCCC1" , what Activity is on record?
> 20%

For the compound "Cn1nc2c(c1CNC(=O)c1ccc3c(c1)OCO3)CCC2" , what Activity is on record?
< 20%

For the compound "c1ccc2nc(N3CCOCC3)ccc2c1" , what Activity is on record?
< 20%

For the compound "Cc1cccc(CSC2=NCCN2)c1" , what Activity is on record?
< 20%

For the compound "N#Cc1c(N)sc2c1CCCC2" , what Activity is on record?
> 20%

====

- Assay System: Nucleosome-remodeling factor subunit BPTF (Homo sapiens)
- Assay Overview: Binding affinity to N-terminal His9 tagged human BPTF isoform 2 PHD (2722 to 2781 residues) expressed in Escherichia coli BL21 Star (DE3) assessed as reduction in proton resonance intensity at 100 uM by 1H CPMG NMR assay relative to control
- Design: scale not given: the % may be the effect or the level left
Measurement Kind: Activity (%)
Your answer should be a plain number; it is taken to be in %.

For the molecule NCC1CCN(c2cccc(F)c2)C1 (stereo not given) , what Activity is on record?
65

For the molecule "O=C(CC12CC3CC(CC(C3)C1)C2)N1CCCC1" , what Activity is on record?
25

For the molecule "COC1CN(c2nc3ccccc3s2)C1" , what Activity is on record?
30

For the molecule "Cn1nc2c(c1CNC(=O)c1ccc3c(c1)OCO3)CCC2" , what Activity is on record?
25

For the molecule "Cc1cccc(CSC2=NCCN2)c1" , what Activity is on record?
50

For the molecule "Cc1ccc(Nc2ccc(N3CCNCC3)nn2)cc1" , what Activity is on record?
50

For the molecule "c1ccc2nc(N3CCOCC3)ccc2c1" , what Activity is on record?
35

For the molecule "Nc1c2c(nc3c1CCC3)CCCC2" , what Activity is on record?
50

For the molecule Cc1ccc(NC(=O)NCC(C)N2CCCC2)cc1 (stereo not given) , what Activity is on record?
35

For the molecule "N#Cc1c(N)sc2c1CCCC2" , what Activity is on record?
60
